- Test system: SCID mice bearing twin HEK293-CCK2i4svR and wtHEK293 tumors
- ASSAY_OVERVIEW: Biodistribution in SCID mice bearing twin HEK293-CCK2i4svR and wtHEK293 xenografts
- Format: in vivo
- TEST_CONDITIONS: 24 h pi
- Experimental: Inocula containing a suspension of freshly harvested HEK293-CCK2i4svR/wtHEK293 cells (150 μL, 1.8 × 10^7/1.4 × 10^7 cells, respectively, in normal saline) were subcutaneously (sc) injected in the right and left flanks of male SCID mice (24.5 ± 2.3 g body weight, six weeks of age on arrival day, NCSR “Demokritos” Animal House Facility). […] Mice were dissected, and blood samples, organs of interest and tumors were rapidly collected, weighted and counted in the gamma counter. […]
Each record here notes measured Biodistribution, CCK2i4svR(+) Tumor.
Could you give me the number in %IA/g? Just the number is fine.

CC(C)(C)C(=O)CN1C(=O)[C@H](NC(=O)Nc2cccc(C(=O)NCCOCCOCCOCCNC(=O)[C@@H](CCC(=O)O)NC(=O)CCC(C(=O)O)N3CCN(CC(=O)[O-])CCN(CC(=O)[O-])CCN(CC(=O)[O-])CC3)c2)CN(C2CCCCC2)c2ccccc21.[111In+3] (some centres unmarked) [[^111In]In-GAS3] : 11.53

Q) Given CC(C)(C)C(=O)CN1C(=O)[C@H](NC(=O)Nc2cccc(C(=O)NCCOCCOCCOCCNC(=O)[C@@H](CCC(=O)O)NC(=O)CCC(C(=O)[O-])N3CCN(CC(=O)[O-])CCN(CC(=O)[O-])CC3)c2)CN(C2CCCCC2)c2ccccc21.[111In+3] (some centres unmarked) [[^111In]In-GAS2] , state its recorded Biodistribution, CCK2i4svR(+) Tumor.
A) 2.78

Q) Given CC(C)(C)C(=O)CN1C(=O)[C@H](NC(=O)Nc2cccc(C(=O)NCCOCCOCCOCCNC(=O)[C@H](CCC(=O)O)NC(=O)CCC(C(=O)[O-])N3CCN(CC(=O)[O-])CCN(CC(=O)[O-])CC3)c2)CN(C2CCCCC2)c2ccccc21.[67Ga+3] (stereo in doubt) [[^67Ga]Ga-GAS2] , state its recorded Biodistribution, CCK2i4svR(+) Tumor.
A) 0.24

Q) Given CC(C)(C)C(=O)CN1C(=O)[C@H](NC(=O)Nc2cccc(C(=O)NCCOCCOCCOCCNC(=O)[C@H](CCC(=O)O)NC(=O)CN3CCN(CC(=O)[O-])CCN(CC(=O)[O-])CCN(CC(=O)[O-])CC3)c2)CN(C2CCCCC2)c2ccccc21.[111In+3] (stereo in doubt) [[^111In]In-GAS1] , state its recorded Biodistribution, CCK2i4svR(+) Tumor.
A) 5.40

Q) Given CC(C)(C)C(=O)CN1C(=O)[C@H](NC(=O)Nc2cccc(C(=O)NCCOCCOCCOCCNC(=O)[C@H](CCC(=O)O)NC(=O)CCC(C(=O)O)N3CCN(CC(=O)[O-])CCN(CC(=O)[O-])CCN(CC(=O)[O-])CC3)c2)CN(C2CCCCC2)c2ccccc21.[67Ga+3] (stereo in doubt) [[^67Ga]Ga-GAS3] , state its recorded Biodistribution, CCK2i4svR(+) Tumor.
A) 5.37

Q) Given CC(C)(C)C(=O)CN1C(=O)[C@H](NC(=O)Nc2cccc(C(=O)NCCOCCOCCOCCNC(=O)[C@H](CCC(=O)O)NC(=O)CCC(C(=O)O)N3CCN(CC(=O)[O-])CCN(CC(=O)[O-])CCN(CC(=O)[O-])CC3)c2)CN(C2CCCCC2)c2ccccc21.[177Lu+3] (stereo in doubt) [[^177Lu]Lu-GAS3] , state its recorded Biodistribution, CCK2i4svR(+) Tumor.
A) 5.38

Q) Given CC(C)(C)C(=O)CN1C(=O)[C@H](NC(=O)Nc2cccc(C(=O)NCCOCCOCCOCCNC(=O)[C@H](CCC(=O)O)NC(=O)CN3CCN(CC(=O)[O-])CCN(CC(=O)[O-])CCN(CC(=O)[O-])CC3)c2)CN(C2CCCCC2)c2ccccc21.[177Lu+3] (stereo in doubt) [[^177Lu]Lu-GAS1] , state its recorded Biodistribution, CCK2i4svR(+) Tumor.
A) 2.09

Q) Given CC(C)(C)C(=O)CN1C(=O)[C@H](NC(=O)Nc2cccc(C(=O)NCCOCCOCCOCCNC(=O)[C@H](CCC(=O)O)NC(=O)CN3CCN(CC(=O)[O-])CCN(CC(=O)[O-])CCN(CC(=O)[O-])CC3)c2)CN(C2CCCCC2)c2ccccc21.[67Ga+3] (stereo in doubt) [[^67Ga]Ga-GAS1] , state its recorded Biodistribution, CCK2i4svR(+) Tumor.
A) 2.47
